- System: sheep blood cells
- experimental-protocol: Recovery survival rate of blood cells after cryopreservation in liquid nitrogen, hemolysis by microplate reader
- Type: cell-based
- test-context: effective ingredient 4 mass % in PBS
measured-metric: Recovery cell survival rate (%)

{"compound": "C=CC(=O)NCCC[N+](C)(C)CCC(=O)[O-] [Carboxybetaine (meth)acrylamide]", "measured-metric": "Recovery cell survival rate", "recorded-value": 71.3}
{"compound": "C[N+](C)(C)CC(=O)[O-] [Betaine, trimethylammonium acetate]", "measured-metric": "Recovery cell survival rate", "recorded-value": 64.8}
{"compound": "OCC(O)CO [Glycerol]", "measured-metric": "Recovery cell survival rate", "recorded-value": 31.8}
{"compound": "C[S+](C)[O-] [DMSO, Dimethyl sulfoxide]", "measured-metric": "Recovery cell survival rate", "recorded-value": 44.4}
{"compound": "C=C(C)C(=O)OCCOP(=O)([O-])OCC[N+](C)(C)C [Phosphorylcholine derivative]", "measured-metric": "Recovery cell survival rate", "recorded-value": 80.9}
{"compound": "C=C(C)C(=O)OCC[N+](C)(C)CCCS(=O)(=O)[O-] [Sulfobetaine]", "measured-metric": "Recovery cell survival rate", "recorded-value": 75.6}
